growth inhibition values by entry
- methodNotes: NCI Yeast Anticancer Drug Screen. Data for the wt2 strain (AID 169);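 also: 0% = growth of vehicle-treated yeast cultures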
- conditionDescription: S. cerevisiae wt2 strain growth inhibition; at 1.2 µM; hits give high values
Compounds without any hit were thinned out: in the full panel of roughly 79,000, 15% have a hit.
recordedEndpoint: growth inhibition (%)

> print(dat)
                                    molecule  obsvalue
 1  CC[n+]1oc(C(=O)c2ccc(Cl)cc2)c(-c2ccccc2)c1-c1ccccc1.[Cl][Fe]([Cl])([Cl])[Cl]         0
 2  C#CCN(Cc1ccc2nc(N)[nH]c(=O)c2c1)c1ccc(C(=O)NC(CCC(=O)O)C(=O)O)cc1 (stereo not given)        -9
 3  C=C1C(=O)OC2CC1C(OC(C)=O)C/C(C)=C/CC/C(C)=C\CCC2(C)O (stereo not given)        -2
 4  O=C(NNc1ccccc1)C(O)C(O)C(O)C(O)C(O)CO (stereo not given)         2
 5         Cc1ccc(S/C(=C\C(=O)O)c2ccccc2)cc1       -10
 6  CC(C)(C)CC(C)(C)c1cc(O)c(O)c(CN2CCCCC2)c1        -2
 7  C[CH2][Sn]([CH2]C)([O]C(=O)C(N)Cc1ccccc1)[O]C(=O)C(N)Cc1ccccc1 (stereo not given)       -15
 8  COc1ccc(/C=C/c2sc3ccccc3[n+]2CCCCI)cc1OC        -3
 9  COC(=O)CC1(O)C(/C=C/c2ccccc2)C(C(=O)OC)C(=O)C(C(=O)OC)C1C(=O)OC (stereo not given)        -2
10       CCCCOCn1c(=O)[nH]c(=O)c2cc(Br)ccc21       -21

---

- methodNotes: NCI Yeast Anticancer Drug Screen. Data for the wt2 strain (AID 169);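 also: 0% = growth of vehicle-treated yeast cultures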
- conditionDescription: S. cerevisiae wt2 strain growth inhibition; at 11.0 µM; hits give high values
This is part of a sample that, as a whole, favours compounds with a hit. Of some 79,000 tested, about 15% had one in any assay.
growth inhibition values by entry
recordedEndpoint: growth inhibition (%)

> print(dat)
                                    molecule  obsvalue
 1           O=C1c2ccccc2C(=O)c2cc(CCl)ccc21         8
 2  COc1cc(C2SCC(=O)N2c2ccc(-c3ccc(-n4c(-c5ccccc5)nc5ccccc5c4=O)cc3)cc2)ccc1O (stereo not drawn)        -2
 3  Cc1cc(N(CCOS(C)(=O)=O)CCOS(C)(=O)=O)ccc1C=Nc1ccc(-c2nc(Cc3ccccc3)sc2C)cc1        48
 4  CCN(CC)CCNc1ccc2ncn3c4cc(OC)c(OC)c(=O)c4c(O)c1c23         1
 5          COC(=O)/C=C(/C(=O)OC)C(Cl)(Cl)Cl        33
 6  Oc1ccc2c(c1)C(O)CCCC2 (stereo not drawn)        25
 7  CC(=O)Nc1ccc2c(c1)Cc1cc(N=C3C=CC(=O)O3)ccc1-2        93
 8  COc1ccc(/C=C/c2sc3ccccc3[n+]2CCCCI)cc1OC        -6
 9  CCOC(=O)C(Br)C(Br)c1ccccc1Cl (stereo not drawn)        93
10         c1ccc2cc(NCNc3ccc4ccccc4c3)ccc2c1         1
11  CCc1nc2ccc(NCCN(C)C)c3c(=O)c4ccccc4n1c23       -29
12  CN(C)c1ccc(C2CC(C)(O)Oc3cc4c(cc32)OCO4)cc1 (stereo not drawn)        -1
13  COC(=O)C1(C)CCc2c(ccc3ccccc23)C1=O (stereo not drawn)         9
14  O=C(O)C1CC(c2ccccc2)=NN1c1ccccc1 (stereo not drawn)       -36
15            O=C(O)c1ccc(N2C(=O)C=CC2=O)cc1         5
16       Nc1n[n+]([O-])c2ccc(Cl)cc2[n+]1[O-]        57
17  C[C@@](O)(/C=C/[C@H]1CC=CC(=O)O1)[C@@H](C[C@@H](O)\C=C/C=C\C=C\CO)OP(=O)(O)O        20
18     CCCCOP(=O)(CCCP(=O)(OCCCC)OCCCC)OCCCC        -4
19  O=C(c1ccc([N+](=O)[O-])cc1)C1N=NCC1c1ccccc1 (stereo not drawn)         1
20      O=C(CSC(=S)N1CCCCC1)Nc1nc2c(s1)CCCC2        -2
21                             Nc1ccc(F)cc1S        56
22  Cc1nc2c(Br)cc(Br)cc2c(=O)n1-c1ccccc1NC1OCC(O)C(O)C1O (stereo not drawn)        10
23  CCOC(=O)C(C(=O)OCC)=P(c1ccccc1)(c1ccccc1)c1ccccc1        -4

---

- methodNotes: NCI Yeast Anticancer Drug Screen. Data for the mlh1 rad18 strain (AID 175)
- conditionDescription: S. cerevisiae mlh1 rad18 strain growth inhibition; at 50.0 µM; hits give high values
The panel holds about 79,000 compounds, 15% with a hit somewhere; the sample as a whole holds those more often.
Lab note: anything with growth inhibition at or over 90% counts as Yes; the rest go in No.

> print(dat)
                                   compound  categorylabel
1  COc1ccc(/C=C/c2sc3ccccc3[n+]2CCCCI)cc1OC            Yes
2  O=[N+]([O-])/C=C/c1cc(Cl)c(/C=C/[N+](=O)[O-])cc1Cl             No
3  CC1SC2(C(=O)Nc3ccc(Cl)cc32)N(c2ccc(Cl)cc2)C1=O (stereo unspecified)            Yes
4  CNC(=O)OCc1c(COC(=O)NC)c2n(c1C)-c1ccc(OC)cc1CCC2             No
5         CCOC(=O)C#Cc1ccc([N+](=O)[O-])cc1            Yes

---

- methodNotes: NCI Yeast Anticancer Drug Screen. Data for the rad52 strain (AID 147);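 also: 0% = growth of vehicle-treated control cultures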
- conditionDescription: S. cerevisiae rad52 mutant growth inhibition; at 3.7 µM; hits give high values
Compounds without any hit were thinned out: in the full panel of roughly 79,000, 15% have a hit.

compound	growth inhibition (%)
C/C(=N\Nc1ccc([N+](=O)[O-])cc1[N+](=O)[O-])c1sc(-n2nc(-c3ccccc3)cc2-c2ccccc2)nc1C	13
Cc1cccc2c1nc1ccc(Cl)cc1[n+]2C	9
CC(C)/C(Cl)=N\OC(=O)Nc1ccc(F)cc1F	7
COc1ccc(C(=O)Oc2ccccc2Br)cc1	6
C/C=C/SC(=Nc1ccccc1)Nc1ccccc1	-5
Cc1nc2ccccc2nc1NNc1ccccc1	-8
Nc1ncc(-c2ccc(Br)cc2)s1	35
COC(=O)NC1C(C)OC(OC2C/C=C(/C)C3C=CC4C(OC5CC(OC6CC(O)C(OC7CC(O)C(OC)C(C)O7)C(C)O6)C(O)C(C)O5)C(C)CC(C)C4C3(C)/C(O)=C3\C(=O)OC4(CC(C)C(CO)=CC4/C=C\2C)C3=O)CC1(C)[N+](=O)[O-] (stereo not given)	40
COc1cc(O)c(O)c(C(C)(C)C)c1	3
COc1cc(/C=C2\CCC/C(=C\c3ccc(O)c(OC)c3)C2=O)ccc1O	-6
CN(C)c1nc(=Nc2cccc(Cl)c2)ss1	34
O=C(CC(=O)n1nc(-c2ccccc2)c(N=Nc2ccc(Cl)cc2)c1-c1ccccc1)Nc1cccc(Cl)c1	-1
COc1cccc(/C=N/C(/N=C/c2cccc(OC)c2O)c2cccc(OC)c2O)c1O	5
COC(=O)C1=C(C(=O)OC)C(C(=O)OC)C(C(=O)OC)C(C(=O)OC)(C(=O)OC)C(C(=O)OC)=C1C(=O)OC (stereo not given)	-6
CCOC(=O)C1N=[N+](c2ccccc2)C(=O)/C1=C\n1c(=S)[nH]c2ccc([N+](=O)[O-])cc21 (stereo not given)	1
CN(C)CCNc1ccc2ncnc3c2c1C(=O)c1ccccc1-3	94
Cc1cccc[n+]1C1CCc2c(ccc3ccccc23)C1=O (stereo not given)	2
CCOC1Oc2ccccc2-c2nc(N)ncc21 (stereo not given)	6
C[C@@](O)(/C=C/[C@H]1CC=CC(=O)O1)[C@@H](C[C@@H](O)\C=C/C=C\C=C\CO)OP(=O)(O)O	22
Oc1ccc2ccccc2c1CCc1c(O)ccc2ccccc12	14

---

- methodNotes: NCI Yeast Anticancer Drug Screen. Data for the rad50EPP+ strain (AID 151);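 also: 0% = growth of vehicle-treated control cultures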
- conditionDescription: S. cerevisiae rad50 mutant strain, at 11.0 µM, hits give high values
- Method: Growth inhibition of yeast strains with defined genetic alterations is measured as a screen for potential anti-cancer activity. Selected strains with alterations in DNA damage repair or cell cycle control were exposed to compounds and growth inhibition was measured relative to vehicle treated controls. The strain used in this assay is rad50EPP+
Compounds without any hit were thinned out: in the full panel of roughly 79,000, 15% have a hit.
recordedEndpoint: growth inhibition (%)

> print(dat)
                                    compound   recordedendpoint  obsvalue
 1  O=C1NC(SSC2=NNC3(C(=O)N2)c2ccccc2-c2ccccc23)=NNC12c1ccccc1-c1ccccc12  growth inhibition        20
 2  N=C1N=Nc2nc(C3(c4nc5n(c4O)C(=N)N=N5)Cc4ccccc4C3=O)c(O)n21 (stereo not given)  growth inhibition        -1
 3                COc1cc(O)c(O)c(C(C)(C)C)c1  growth inhibition        41
 4             C/C=C/SC(=Nc1ccccc1)Nc1ccccc1  growth inhibition        11
 5  Cc1nc(Nc2ccccc2[N+](=O)[O-])sc1C(=O)CC(=O)C(=O)Nc1c(C(C)C)cccc1C(C)C  growth inhibition        37
 6      O=C1Nc2ccc(Br)cc2C1=Nc1ccc2c(c1)OCO2  growth inhibition       -45
 7  Cc1c2cc[n+](Cc3ccc(I)cc3)cc2c(C)c2c1[nH]c1ccccc12  growth inhibition        34
 8  CCOC(=O)C1N=[N+](c2ccccc2)C(=O)/C1=C\n1c(=S)[nH]c2ccc([N+](=O)[O-])cc21 (stereo not given)  growth inhibition         4
 9      CC12C(=O)OC(=O)C(c3ccccc31)c1ccccc12  growth inhibition       -30
10  CC1SC2(C(=O)Nc3ccc(Cl)cc32)N(c2ccc(Cl)cc2)C1=O (stereo not given)  growth inhibition        -1
11  CN(C)CCOC1(Cc2ccc(F)cc2)CCC(C(C)(C)C)CC1 (stereo not given)  growth inhibition       -27
12  COC1CCC(O)C(/C=C/[N+](=O)[O-])C1 (stereo not given)  growth inhibition        56
13  Cc1cccc[n+]1C1CCc2c(ccc3ccccc23)C1=O (stereo not given)  growth inhibition         8
14  CN(C)[C@@H]1C(=O)C(C(N)=O)=C(O)[C@@]2(O)C(=O)C3=C(O)c4c(O)cccc4C[C@H]3C[C@@H]12  growth inhibition        14
15  C#CCN(Cc1ccc2nc(N)[nH]c(=O)c2c1)c1ccc(C(=O)NC(CCC(=O)O)C(=O)O)cc1 (stereo not given)  growth inhibition        44
16  CC(C)(C)[Si](C)(C)OCC1CCC(n2cnc3c(NC(=O)c4ccccc4)ncnc32)O1 (stereo not given)  growth inhibition         1
17  C/C(=N\Nc1ccc([N+](=O)[O-])cc1[N+](=O)[O-])c1sc(-n2nc(-c3ccccc3)cc2-c2ccccc2)nc1C  growth inhibition        27
18  CCOC(=O)c1cc([N+](=O)[O-])c(Sc2ncnc3nc[nH]c23)c([N+](=O)[O-])c1  growth inhibition        -5
19                c1ccc(CCN2CCc3ccccc3C2)cc1  growth inhibition        -1
20  Cc1cc(S(=O)(=O)Nc2nnc3cnc4ccccc4n23)c(S)cc1Cl  growth inhibition       -25
